Please go through the items and note down their pIC50.
Tested on: MDA-MB-231
Assay: Antiproliferative activity against human MDA-MB-231 cells incubated for 48 hrs by MTT assay
Type: functional, cell-based
Conditions: MDA-MB-231, 48 h
pIC50: −log10 of the molar value.

Past entries and their recorded results:
>>> measurement("Cc1ncsc1-c1ccc([C@H](C)NC(=O)[C@@H]2C[C@@H](O)CN2C(=O)[C@@H](NC(=O)CCc2cn(CCCCCn3c(=O)c(-c4ccc(Cl)cc4Cl)cc4cnc(NC5CC5)nc43)nn2)C(C)(C)C)cc1")
"< 4.30"
>>> measurement("CNc1ncc2cc(-c3ccc(Cl)cc3Cl)c(=O)n(CCOCCOCCOCCn3cc(CNc4cccc5c4C(=O)N(C4CCC(=O)NC4=O)C5=O)nn3)c2n1 (stereo unspecified)")
"< 4.30"
>>> measurement("Cc1ncsc1-c1ccc([C@H](C)NC(=O)[C@@H]2C[C@@H](O)CN2C(=O)[C@@H](NC(=O)CCc2cn(CCOCCOCCOCCn3c(=O)c(-c4ccc(Cl)cc4Cl)cc4cnc(NC5CC5)nc43)nn2)C(C)(C)C)cc1")
"< 4.30"
>>> measurement("Cc1ncsc1-c1ccc([C@H](C)NC(=O)[C@@H]2C[C@@H](O)CN2C(=O)[C@@H](NC(=O)CCCc2cn(CCCCCn3c(=O)c(-c4ccc(Cl)cc4Cl)cc4cnc(NC5CC5)nc43)nn2)C(C)(C)C)cc1")
4.79
>>> measurement("CNc1ncc2cc(-c3ccc(Cl)cc3Cl)c(=O)n(CCCCn3cc(CNc4cccc5c4C(=O)N(C4CCC(=O)NC4=O)C5=O)nn3)c2n1 (stereo unspecified)")
"< 4.30"
>>> measurement("Cc1ncsc1-c1ccc([C@H](C)NC(=O)[C@@H]2C[C@@H](O)CN2C(=O)[C@@H](NC(=O)CCCCc2cn(CCCCCn3c(=O)c(-c4ccc(Cl)cc4Cl)cc4cnc(NC5CC5)nc43)nn2)C(C)(C)C)cc1")
5.26
>>> measurement("CNc1ncc2cc(-c3ccc(Cl)cc3Cl)c(=O)n(CCCCCn3cc(CNc4cccc5c4C(=O)N(C4CCC(=O)NC4=O)C5=O)nn3)c2n1 (stereo unspecified)")
"< 4.30"
>>> measurement("O=C1CCC(N2C(=O)c3cccc(NCc4cn(CCCCn5c(=O)c(-c6ccc(Cl)cc6Cl)cc6cnc(NC7CC7)nc65)nn4)c3C2=O)C(=O)N1 (stereo unspecified)")
4.46
>>> measurement("Cc1ncsc1-c1ccc([C@H](C)NC(=O)[C@@H]2C[C@@H](O)CN2C(=O)[C@@H](NC(=O)CCCCc2cn(CCOCCOCCn3c(=O)c(-c4ccc(Cl)cc4Cl)cc4cnc(NC5CC5)nc43)nn2)C(C)(C)C)cc1")
"< 4.30"
>>> measurement("Cc1ncsc1-c1ccc([C@H](C)NC(=O)[C@@H]2C[C@@H](O)CN2C(=O)[C@@H](NC(=O)CCCCc2cn(CCCCCCCn3c(=O)c(-c4ccc(Cl)cc4Cl)cc4cnc(NC5CC5)nc43)nn2)C(C)(C)C)cc1")
"< 4.30"

Problem: Look at this molecule and give its reported pIC50. Cc1ncsc1-c1ccc([C@H](C)NC(=O)[C@@H]2C[C@@H](O)CN2C(=O)[C@@H](NC(=O)CCc2cn(CCOCCOCCn3c(=O)c(-c4ccc(Cl)cc4Cl)cc4cnc(NC5CC5)nc43)nn2)C(C)(C)C)cc1
Solution: < 4.30
